# Target: T1, huCD33-G69 stably expressed on Jurkat cells (human, UniProt P20138 18-364)
# T1 construct: whole, on cells; >200,000 receptors per cell; also called CD33 Mutant; CD33 R69G
# T1 sequence (P20138 18-364 R69G): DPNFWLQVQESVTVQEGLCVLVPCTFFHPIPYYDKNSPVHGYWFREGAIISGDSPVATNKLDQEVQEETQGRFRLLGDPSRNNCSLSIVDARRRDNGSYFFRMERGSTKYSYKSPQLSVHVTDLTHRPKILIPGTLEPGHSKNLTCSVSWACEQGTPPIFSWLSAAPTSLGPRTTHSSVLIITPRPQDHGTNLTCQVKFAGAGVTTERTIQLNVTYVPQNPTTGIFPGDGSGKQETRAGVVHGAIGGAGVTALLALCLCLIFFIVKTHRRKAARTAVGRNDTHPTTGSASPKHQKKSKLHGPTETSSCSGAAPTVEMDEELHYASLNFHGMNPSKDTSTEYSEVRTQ
# Method notes: FACS on cells;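 note: fixed Jurkat lines probed with myc-tagged scFv periplasmic extracts, anti-myc PE flow cytometry, PE MFI fold binned − <2, + 2–10, ++ 10–30, +++ >30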
We begin with a simple list: items and their reported FACS geometric mean fold change over Jurkat parental.

Worked cases, FACS geometric mean fold change over Jurkat parental given:
Binder	Measurement
Polypeptide No. 193 (scFv, V domains shown, scFv) VH: EVQLLESGGGLVQPGGSLRLSCAASGFTFSNSDMNWVRQAPGKGLEWVSYISGTGSTIYYADSVKGRFTISRDNSKNTLYLQMNSLRAEDTAVYYCAKDYDSSYGSGYYGMDVWGQGTTVTVSS VL: DIQMTQSPSSLSASVGDRVTITCRASQSIYNYLNWYQQKPGKAPKLLIYAASNLQSGVPSRFSGSGSGTDFTLTISSLQPEDFATYYCQQYGNAPLTFGQGTKVEIKR	> 30 fold
Polypeptide No. 134 (scFv, V domains shown, scFv) VH: QVQLVQSGAEVKKPGASVKVSCKASGYTFDSYLLHWVRQAPGQGLEWMGMINPSGAGTTYAQKFQGRVTMTRDTSTSTVYMELSSLRSEDTAVYYCAKEGSIAAGYYFDSWGQGTLVTVSS VL: DIQMTQSPSSLSASVGDRVTITCRASQSIDSWLAWYQQKPGKAPKLLIYAASSLQSGVPSRFSGSGSGTDFTLTISSLQPEDFATYYCQQSYTTPITFGGGTKVEIKR	> 30 fold
Polypeptide No. 99 (scFv, V domains shown, scFv) VH: QVQLVQSGAEVKKPGSSVKVSCKASGYTFSDYHIHWVRQAPGQGLEWMGWMNPNSGNTGYAQKFQGRVTITADESTSTAYMELSSLRSEDTAVYYCARTHSSGYYYWFDPWGQGTLVTVSS VL: DIQMTQSPSSLSASVGDRVTITCRASQGISNNLNWYQQKPGKAPKLLIYQASNKDTGVPSRFSGSGSGTDFTLTISSLQPEDFATYYCQQSYSSPPTFGQGTKVEIKR	10 to 30 fold
Polypeptide No. 126 (scFv, V domains shown, scFv) VH: EVQLLESGGGLVQPGGSLRLSCAASGFTFTTYDMHWVRQAPGKGLEWVAGINWNSVIIDYADSVKGRFTISRDNSKNTLYLQMNSLRAEDTAVYYCAKDLLYYYDSIGAFDIWGQGTMVTVSS VL: DIQMTQSPSSLSASVGDRVTITCRASQSISTWLAWYQQKPGKAPKLLIYAASSLQSGVPSRFSGSGSGTDFTLTISSLQPEDFATYYCQQSDTLPLTFGGGTKVEIKR	10 to 30 fold

Now for a further binder.
Q: GET /values?readout=FACS geometric mean fold change over Jurkat parental&item= Polypeptide No. 191 (scFv, V domains shown, scFv) VH: QVQLVQSGAEVKKPGASVKVSCKASGGTFSSYAISWVRQAPGQGLEWMGWMNPNSGNTGYAQKFQGRVTMTRDTSTSTVYMELSSLRSEDTAVYYCAREDYYDSSGNFDYWGQGTLVTVSS VL: DIQMTQSPSSLSASVGDRVTITCQASHDINIHLNWYQQKPGKAPKLLIYDASNLETGVPSRFSGSGSGTDFTLTISSLQPEDFATYYCQQAYSLPWTFGQGTKVEIKR
A: 10 to 30 fold
